Listed below: growth inhibition values for each entry.
- Assay details: NCI Yeast Anticancer Drug Screen. Data for the rad50 strain (AID 155);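 further: 0% = growth of vehicle-only cultures of the same strain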
- Stated conditions: S. cerevisiae rad50 strain growth inhibition; at 50.0 µM; active compounds read high
About 79,000 compounds went through this panel and 15% of them were active in at least one assay; those are over-represented in the sample as a whole.
State the answer as a number, implicitly in %.

Field growth inhibition (entry CCCCN(C(=O)c1ccccc1)C1CCC(=O)c2[nH]c3ccccc3c21 (configuration not stated) ) reads 85.5

Field growth inhibition (entry COc1ccc(OP2(Oc3ccc(OC)cc3)=NP(Oc3ccc(OC)cc3)(Oc3ccc(OC)cc3)=NP(Oc3ccc(OC)cc3)(Oc3ccc(OC)cc3)=NP(Oc3ccc(OC)cc3)(Oc3ccc(OC)cc3)=N2)cc1 ) reads 61.3
